# experimental_system: IL1RL1 with the extracellular risk allele (rs1041973 [C]) and the TIR signalling domain risk haplotype (rs10192157 [C]) (human) (UniProt Q01638)
readout_kind: IL8 EC50 (IL8 ELISA of supernatant, transfected HEK293, risk:risk haplotype) (pM)
Quick note: give the figure in pM, leave out the unit.

[[record]]
binder = "IL33_(112–270) (ABNOVA) (ligand) SITGISPITEYLASLSTYNDQSITFALEDESYEIYVEDLKKDEKKDKVLLSYYESQHPSNESGDGVDGKMLMVTLSPTKDFWLHANNKEHSVELHKCEKPLPDQAFFVLHNMHSNCVSFECKTDPGVFIGVKDNHLALIKVDSSENLCTENILFKLSET"
measured_number = 69.8


// lookup IL8 EC50 (IL8 ELISA of supernatant, transfected HEK293, risk:risk haplotype) for IL33_(95–270) (ligand) AFGISGVQKYTRALHDSSITGISPITEYLASLSTYNDQSITFALEDESYEIYVEDLKKDEKKDKVLLSYYESQHPSNESGDGVDGKMLMVTLSPTKDFWLHANNKEHSVELHKCEKPLPDQAFFVLHNMHSNCVSFECKTDPGVFIGVKDNHLALIKVDSSENLCTENILFKLSET
0.74

// lookup IL8 EC50 (IL8 ELISA of supernatant, transfected HEK293, risk:risk haplotype) for IL33_(99–270) (ligand) SGVQKYTRALHDSSITGISPITEYLASLSTYNDQSITFALEDESYEIYVEDLKKDEKKDKVLLSYYESQHPSNESGDGVDGKMLMVTLSPTKDFWLHANNKEHSVELHKCEKPLPDQAFFVLHNMHSNCVSFECKTDPGVFIGVKDNHLALIKVDSSENLCTENILFKLSET
29000

// lookup IL8 EC50 (IL8 ELISA of supernatant, transfected HEK293, risk:risk haplotype) for IL33_(113–270) (ligand) ITGISPITEYLASLSTYNDQSITFALEDESYEIYVEDLKKDEKKDKVLLSYYESQHPSNESGDGVDGKMLMVTLSPTKDFWLHANNKEHSVELHKCEKPLPDQAFFVLHNMHSNCVSFECKTDPGVFIGVKDNHLALIKVDSSENLCTENILFKLSET
1580

// lookup IL8 EC50 (IL8 ELISA of supernatant, transfected HEK293, risk:risk haplotype) for IL33_(109–270) (ligand) HDSSITGISPITEYLASLSTYNDQSITFALEDESYEIYVEDLKKDEKKDKVLLSYYESQHPSNESGDGVDGKMLMVTLSPTKDFWLHANNKEHSVELHKCEKPLPDQAFFVLHNMHSNCVSFECKTDPGVFIGVKDNHLALIKVDSSENLCTENILFKLSET
1.17
